PROCEDURE_SUMMARY: chemical genetic growth profiling, strain panel (AID 1159580);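 also: tested at 20 µM; growth read once vehicle control cultures reached saturation at 30 °C; 1 = growth at the plate median or of vehicle wells; lower values mean less growth of the strain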
CONDITION_DETAILS: S. cerevisiae deletion strains, growth OD, locus YPR119W, strain clb2, stronger effect = lower value
Among all 5,500 compounds or so, about 2,000 (36%) were called active. About 18% were inconclusive and are not listed. This is one part of the list.
Listed next: entries and their corresponding normalized growth.

The following molecules have reported results that may help.
MOLECULE	QUANTITY_MEASURED	EXPERIMENTAL_RESULT
CC(CCc1ccccc1)NCC(O)c1ccc(O)c(C(N)=O)c1 (stereo unspecified)	normalized growth	1.02 (inactive)
OC[C@H]1O[C@@H](O[C@H]2[C@H](O)[C@@H](O)[C@@H](O)O[C@@H]2CO)[C@H](O)[C@@H](O)[C@@H]1O	normalized growth	1.01 (inactive)
CC12CCC3C(CC3(C)C)C(C)(CCC1=O)O2 (stereo unspecified)	normalized growth	1.02 (inactive)
CN(C)CCCN1c2ccccc2Sc2ccc(C(F)(F)F)cc21	normalized growth	0.982 (inactive)
COc1ccc(C2Sc3ccccc3N(CCN(C)C)C(=O)C2OC(C)=O)cc1 (stereo unspecified)	normalized growth	1.03 (inactive)

Kindly consider the entry below.
Reported normalized growth for `CN(C)CCCN1c2ccccc2CCc2ccccc21` : what is it?
0.99 (inactive)
